Cited source: paper PMC4569258

We begin with a simple list: items and their reported pEC50.
ASSAYED SYSTEM: UniProt:P35869
Sequence (P35869 11-848): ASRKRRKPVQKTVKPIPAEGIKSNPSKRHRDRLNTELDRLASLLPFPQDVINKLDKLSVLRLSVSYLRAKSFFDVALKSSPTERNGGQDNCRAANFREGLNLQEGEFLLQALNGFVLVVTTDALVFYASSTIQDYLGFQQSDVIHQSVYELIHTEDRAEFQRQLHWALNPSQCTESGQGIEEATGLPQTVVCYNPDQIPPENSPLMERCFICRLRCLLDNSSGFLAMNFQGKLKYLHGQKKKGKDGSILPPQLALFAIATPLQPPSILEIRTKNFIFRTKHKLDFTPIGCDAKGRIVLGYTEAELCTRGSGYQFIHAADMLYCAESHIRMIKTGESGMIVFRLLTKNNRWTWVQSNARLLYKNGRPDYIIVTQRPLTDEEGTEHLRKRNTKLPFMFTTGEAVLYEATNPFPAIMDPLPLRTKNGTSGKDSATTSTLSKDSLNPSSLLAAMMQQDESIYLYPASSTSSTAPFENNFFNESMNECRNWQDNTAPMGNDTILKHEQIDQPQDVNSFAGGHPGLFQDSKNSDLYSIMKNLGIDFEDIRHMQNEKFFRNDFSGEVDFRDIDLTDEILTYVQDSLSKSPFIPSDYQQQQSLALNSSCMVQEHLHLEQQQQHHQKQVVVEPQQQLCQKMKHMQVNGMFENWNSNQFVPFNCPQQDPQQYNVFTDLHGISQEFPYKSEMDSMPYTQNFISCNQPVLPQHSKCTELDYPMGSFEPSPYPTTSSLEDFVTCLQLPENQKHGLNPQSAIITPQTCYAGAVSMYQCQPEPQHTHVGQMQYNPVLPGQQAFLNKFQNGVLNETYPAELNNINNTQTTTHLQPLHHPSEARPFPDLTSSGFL
PROTOCOL: cell-based
pEC50: −log10 of the molar value.

Solved entries:
INSERT INTO assay_data (compound, endpoint_result) VALUES
  ('CC(C)c1nc(N(C)S(C)(=O)=O)nc(-c2ccc(F)cc2)c1C=CC(O)CC(O)CC(=O)O (stereo not drawn) [3S5R-rosuvastatin, 3S5R- rosuvastatin]', '< 4.00'),
  ('CC(C)c1nc(N(C)S(C)(=O)=O)nc(-c2ccc(F)cc2)c1C=CC(O)CC(O)CC(=O)O (stereo not drawn) [3R5S-rosuvastatin]', '< 4.00');

# context switch: different compound, same pEC50
*Q* Form entry - test system: UniProt:P35869; read-out: pEC50; compound: CC(C)c1nc(N(C)S(C)(=O)=O)nc(-c2ccc(F)cc2)c1C=CC(O)CC(O)CC(=O)O (stereo not drawn) [3R5R-rosuvastatin, 3R5R- rosuvastatin]
*A* < 4.00
